Form field: pest or weed control at 125 g/ha (one value per entry).
# Tested on: Alopecurus myosuroides (ALOMY)
# assay info: Example A post-emergence herbicidal activity, glasshouse pot test
# Assay type: in vivo
# cond: 360 h, rate 125 g/ha, evaluated 15 days after spraying, read-out: Post-emergence activity ALOMY (100=total damage to plant; 0=no damage to plant)
Return type: number; implicit unit %.

// below: answered molecules
| molecule | study target | pest or weed control at 125 g/ha (%) |
| --- | --- | --- |
| Cc1ccc(-c2ccc(Cl)c(F)c2)cc1C1=C(O)C(C)(C)OC(C)(C)C1=O | Alopecurus myosuroides (ALOMY) | 90 |
| Cc1ccc(-c2ccc(Cl)cc2)cc1C1=C(O)COCC1=O | Alopecurus myosuroides (ALOMY) | 0 |
| CCc1ccc(-c2ccc(Cl)cc2)cc1C1=C(O)C(C)(C)OC(C)(CC)C1=O (single isomer, unassigned) | Alopecurus myosuroides (ALOMY) | 70 |

I'd like to know its pest or weed control at 125 g/ha. The molecule in question is `CCc1ccc(-c2ccc(Cl)cc2)cc1C1=C(O)COCC1=O`
20

I would be grateful if you could share the reported pest or weed control at 125 g/ha for `CCc1ccc(-c2ccc(Cl)cc2Cl)cc1C1=C(O)C(C)(C)OC(C)(C)C1=O` .
20

Field request: pest or weed control at 125 g/ha | item: Cc1ccc(-c2ccc(Cl)cc2)cc1C1=C(O)COC(C)(C)C1=O (single isomer, unassigned)
10

Given the entry `Cc1cc(-c2ccc(C)c(C3=C(O)C(C)(C)OC(C)(C)C3=O)c2)ccc1Cl` , report its measured pest or weed control at 125 g/ha.
30

Name the reported pest or weed control at 125 g/ha value associated with the molecule `CCCCC(=O)OC1=C(c2cc(-c3ccc(Cl)cc3)ccc2CC)C(=O)C(C)(C)OC1(C)C`
20

---

Each entry below carries its recorded pest or weed control at 250 g/ha.
# Test system: Amaranthus retroflexus (AMARE)
# assay info: Example B post-emergence herbicidal activity, glasshouse pot test
# Format: in vivo
# cond: 312 h, rate 250 g/ha, evaluated after 13 days, read-out: Post-emergence activity AMARE (100=total damage to plant; 0=no damage to plant)
Dear colleague, please return just the value in %, with no unit written.

| compound | study target | pest or weed control at 250 g/ha / % |
| --- | --- | --- |
| CCc1ccc(-c2ccc(Cl)cc2Cl)cc1C1=C(O)C(C)(C)SC(C)(C)C1=O (single isomer, unassigned) | Amaranthus retroflexus (AMARE) | 20 |

What measured pest or weed control at 250 g/ha goes with `CCc1ccc(-c2cnc(Cl)cc2C)cc1C1=C(O)C(C)(C)C(=O)C(C)(C)C1=O` ?
0

Using the record for `CCc1ccc(-c2ccc(Cl)c(Cl)c2Cl)cc1C1=C(O)C(C)(C)OC(C)(C)C1=O` , report its pest or weed control at 250 g/ha.
30

---

# Test system: Amaranthus retroflexus (AMARE)
# assay info: Example B post-emergence herbicidal activity, glasshouse pot test
# Assay type: in vivo
# cond: 312 h, rate 250 g/ha, evaluated after 13 days, read-out: Post-emergence activity AMARE (100=total damage to plant; 0=no damage to plant)
Known pest or weed control at 250 g/ha of a selection of compounds
Form entry: value (%) — number only.

Solved entries:
| compound | observed measurement |
| --- | --- |
| CCOC[C@]12CC[C@H](O1)C(=O)C(c1cc(-c3ccc(Cl)c(Cl)c3)ccc1CC)=C2O (single isomer, unassigned) [Compound A-129] | 0 |
| CC1(C)OC(C)(C)C(O)=C(c2cc(-c3ccc(Cl)cc3)ccc2Cl)C1=O [Compound A-142] | 0 |
| Cc1ccc(-c2c(Cl)cc(Cl)cc2Cl)cc1C1=C(O)C(C)(C)OC(C)(C)C1=O [Compound A-60] | 60 |
| CCc1ccc(-c2cc(Cl)c(Cl)cc2Cl)cc1C1=C(O)C(C)(C)OC(C)(C)C1=O [Compound A-144] | 40 |

Quick one: pest or weed control at 250 g/ha of CCc1ccc(-c2ccc(Cl)cc2Cl)cc1C1=C(O)[C@@]2(C)CC[C@H](O2)C1=O (single isomer, unassigned) [Compound A-128] ?
0

---

The entries below are paired with their reported pest or weed control at 500 g/ha.
# Tested on: Alopecurus myosuroides (ALOMY)
# assay info: Example A pre-emergence herbicidal activity, glasshouse pot test
# Assay type: in vivo
# cond: 480 h, rate 500 g/ha, evaluated 20 days after spraying, read-out: Pre-emergence activity ALOMY (100=total damage to plant; 0=no damage to plant)
Your answer is read as %, so omit the unit and give the number.

Solved entries (count: 3):
| compound | unit | pest or weed control at 500 g/ha |
| --- | --- | --- |
| Cc1ccc(-c2ccc(Cl)cc2)cc1C1=C(O)C(C)(C)OC(C)(C)C1=O | % | 60 |
| CCc1ccc(-c2ccc(Cl)cc2)cc1C1=C(O)COCC1=O | % | 50 |
| Cc1ccc(-c2ccc(Cl)cc2)cc1C1=C(O)COC(C)(C)C1=O (single isomer, unassigned) | % | 40 |

Consider the compound `Cc1ccc(-c2ccc(Cl)cc2)cc1C1=C(O)COCC1=O` and give its measured pest or weed control at 500 g/ha.
30

What value of measured pest or weed control at 500 g/ha is listed for `CCCCC(=O)OC1=C(c2cc(-c3ccc(Cl)cc3)ccc2CC)C(=O)C(C)(C)OC1(C)C` ?
30

Give its pest or weed control at 500 g/ha value. Item: `COC(=O)OC1=C(c2cc(-c3ccc(Cl)cc3)ccc2C)C(=O)C(C)(C)OC1`
0

Would you kindly share the measured pest or weed control at 500 g/ha for `CCc1ccc(-c2ccc(Cl)cc2)cc1C1=C(O)C(C)(C)SC(C)(C)C1=O` ?
20

# lookup: pest or weed control at 500 g/ha of `CCc1ccc(-c2ccc(Cl)cc2)cc1C1=C(O)C(C)(C)C(=O)C(C)(C)C1=O`
40

Data request, read-out pest or weed control at 500 g/ha, for `Cc1ccc(-c2ccc(F)cc2)cc1C1=C(O)C(C)(C)OC(C)(C)C1=O`
20

---

# Test system: Amaranthus retroflexus (AMARE)
# assay info: Example B post-emergence herbicidal activity, glasshouse pot test
# Format: in vivo
# cond: 312 h, rate 250 g/ha, evaluated after 13 days, read-out: Post-emergence activity AMARE (100=total damage to plant; 0=no damage to plant)
# Method: Seeds of a variety of test species were sown in standard soil in pots. […] After 13 days for pre and post-emergence, the test was evaluated (100=total damage to plant; 0=no damage to plant). […]
Here, each record is paired with measured pest or weed control at 250 g/ha data.

Some compounds with known pest or weed control at 250 g/ha results, for comparison:
| compound | observed measurement |
| --- | --- |
| CCc1ccc(-c2ccc(Cl)c(Cl)c2)cc1C1=C(O)[C@@]2(C)CC[C@H](O2)C1=O (single isomer, unassigned) [Compound A-123] | 0% |
| Cc1ccc(-c2ccc(Cl)cc2Cl)cc1C1=C(O)C(C)(C)[S+]([O-])C(C)(C)C1=O (single isomer, unassigned) [Compound C-7] | 0% |

// pest or weed control at 250 g/ha lookup, key: CCc1ccc(-c2ccc(Cl)cc2C)cc1C1=C(O)C(C)(C)OC(C)(C)C1=O [Compound A-64]
20%

Could you share which pest or weed control at 250 g/ha value was measured for CCc1ccc(-c2ccc(Cl)cc2Cl)cc1C1=C(O)C(C)(C)C(=O)C(C)(C)C1=O [Compound B-13] ?
20%

// query pest or weed control at 250 g/ha value for entry CCc1ccc(-c2ccc(Cl)c(F)c2)cc1C1=C(O)[C@@]2(C)CC[C@H](O2)C1=O (single isomer, unassigned) [Compound A-125]
0%

Query: pest or weed control at 250 g/ha; subject: CCc1ccc(-c2ccc(Cl)nc2)cc1C1=C(O)C(C)(C)OC(C)(C)C1=O [Compound A-76]
0%

Return reported pest or weed control at 250 g/ha; argument: CCOC[C@]12CC[C@H](O1)C(=O)C(c1cc(-c3ccc(Cl)c(F)c3)ccc1CC)=C2O (single isomer, unassigned) [Compound A-126]
0%

---

# System: Alopecurus myosuroides (ALOMY)
# assay info: Example B post-emergence herbicidal activity, glasshouse pot test
# Type: in vivo
# cond: 312 h, rate 250 g/ha, evaluated after 13 days, read-out: Post-emergence activity ALOMY (100=total damage to plant; 0=no damage to plant)
Class boundaries, taken from values of pest or weed control at 250 g/ha, are as follows: bin A = under 50%, bin B = from 50% up to 90%, bin C = 90% and over

Examples from the recorded data:
| compound | group |
| --- | --- |
| CCc1ccc(-c2ccc(Cl)c(Cl)c2F)cc1C1=C(O)C(C)(C)OC(C)(C)C1=O [Compound A-155] | bin C |
| CCc1ccc(-c2ccc(Cl)nc2Cl)cc1C1=C(O)C(C)(C)C(=O)C(C)(C)C1=O [Compound B-29] | bin A |
| CC(=O)OC1=C(c2cc(-c3ccc(Cl)cn3)ccc2C)C(=O)C(C)(C)OC1(C)C [Compound D-28] | bin B |
| CCc1ccc(-c2ccc(Cl)c(F)c2)cc1C1=C(O)[C@]2(C)O[C@@H](CC2COC)C1=O (stereo partly drawn) [Compound A-127] | bin B |
| CCc1ccc(-c2ccc(Cl)cc2Cl)cc1C1=C(O)[C@]2(C)O[C@@H](CC2COC)C1=O (stereo partly drawn) [Compound A-133] | bin A |
| CCc1ccc(-c2ccc(Cl)cc2OC)cc1C1=C(O)C(C)(C)C(=O)C(C)(C)C1=O [Compound B-25] | bin A |
| CCc1ccc(-c2ccc(Cl)nc2C)cc1C1=C(O)C(C)(C)OC(C)(C)C1=O [Compound A-77] | bin B |
| CCc1ccc(-c2ccc(Br)cc2)cc1C1=C(O)C(C)(C)OC(C)(C)C1=O [Compound A-81] | bin C |

Sort CCc1ccc(-c2ccc(Cl)cc2Cl)cc1C1=C(O)[C@@]2(C)CC[C@H](O2)C1=O (single isomer, unassigned) [Compound A-128] into one of the categories.
bin B

For CCc1ccc(-c2ccc(Cl)c(F)c2)cc1C1=C(O)[C@@]2(C)CC[C@H](O2)C1=O (single isomer, unassigned) [Compound A-125] , which pest or weed control at 250 g/ha bin applies?
bin C

# bin label for CCc1ccc(-c2ccc(Cl)cc2)cc1C1=C(O)[C@@]2(CC)CC[C@H](O2)C1=O [Compound A-79]
bin B

Returns: class label. Input: CCc1ccc(-c2cc(Cl)c(Cl)c(Cl)c2)cc1C1=C(O)C(C)(C)OC(C)(C)C1=O [Compound A-139]
bin A

Lab note: sort COc1ccc(-c2ccc(Cl)cc2F)cc1C1=C(O)C(C)(C)OC(C)(C)C1=O [Compound A-103] into the matching pest or weed control at 250 g/ha band.
bin A
